Test system: Escherichia coli ATCC 8739
Assay: Test for adequate preservation (European Pharmacopea), 1,2-diols and 1,2-diol mixtures in O/W emulsion
Assay type: cell-based
Conditions: 24 h; 3% diol(s) in O/W emulsion
measured-parameter: germ count E. coli (CFU/ml)
Respond with the bare value in CFU/ml.

What measured germ count E. coli goes with CCCCCCC(O)CO (stereo not shown) ?
0

What measured germ count E. coli goes with CCCCCCCCC(O)CO (stereo not shown) ?
0

====

Tested on: Aspergillus niger ATCC 16404
Test: Test for adequate preservation (European Pharmacopea), 1,2-diols and 1,2-diol mixtures in O/W emulsion
Type: cell-based
Conditions: 4 d; 3% diol(s) in O/W emulsion
# reported germ count A. niger; entries follow

Study these solved cases before continuing.
- molecule: "CCCCC(O)CO (stereo not shown)"
  germ count A. niger: "120,000 CFU/ml"
- molecule: "CCCCCCC(O)CO (stereo not shown)"
  germ count A. niger: "6,000 CFU/ml"
- molecule: "CCCC(O)CO (stereo not shown)"
  germ count A. niger: "180,000 CFU/ml"

Kindly consider the entry below.
What value of germ count A. niger on Aspergillus niger ATCC 16404 does CCCCCCCCC(O)CO (stereo not shown) have?
100,000 CFU/ml
